system.name: monoclonal antibody 7C11 (anti-Bla g 2)
Sequence (chain, as listed by the source, chain 2 of 2, other chains not shown): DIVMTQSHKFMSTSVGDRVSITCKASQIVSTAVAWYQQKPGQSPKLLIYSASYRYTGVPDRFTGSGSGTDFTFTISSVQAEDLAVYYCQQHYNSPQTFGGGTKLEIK
assay.details: competition ELISA
conditions: chain shown with the change; competitor concentration 0.1 µg/ml; solid phase rBla g 2-N93Q; parent: est. 47; read off a plot
measured.parameter: other: Biotinylated mAb 7C11 bound to Bla g 2 (%)
Numbers only, in %.

Lab note: measured other: Biotinylated mAb 7C11 bound to Bla g 2 (%) of recombinant Bla g 2-N93Q K132A (protein) VPLYKLVHVFINTQYAGITKIGNQNFLTVFDSTSCNVVVASQECVGGACVCPNLQKYEKLKPKYISDGNVQVKFFDTGSAVGRGIEDSLTISQLTTSQQDIVLADELSQEVCILSADVVVGIAAPGCPNALAGKTVLENFVEENLIAPVFSIHHARFQDGEHFGEIIFGGSDWKYVDGEFTYVPLVGDDSWKFRLDGVKIGDTTVAPAGTQAIIDTSKAIIVGPKAYVNPINEAIGCVVEKTTTRRICKLDCSKIPSLPDVTFVINGRNFNISSQYYIQQNGNLCYSGFQPCGHSDHFFIGDFFVDHYYSEFNWENKTMGFGRSVESV was 100
